// provenance: PubChem BioAssay (NCATS)

Kindly supply the reported Z-AUC values for the records listed here.
- test.description: qHTS drug screen for cell cycle checkpoint inhibitors in PARPi-resistant BRCA-mutant ovarian cancer cell lines. (AID 1963452)
- experimental.setup: PEO1/OlaR viability, CellTiter-Glo luminescence, 96 h; measured here: PEO1 parental Z-AUC; stronger effect = lower value
- Description: Women's Malignancies Branch, Center for Cancer Research (CCR), National Cancer Institute (NCI), National Institutes of Health (NIH), Bethesda, MD Poly (ADP-ribose) polymerase inhibitors (PARPis) have changed the treatment paradigm in breast cancer gene (BRCA) - mutant high-grade serous ovarian carcinoma (HGSC). […] 6; Detection; Luminescence, PHERAstar (BMG Labtech) plate reader. […] 6. Luminescence readings were taken using PHERAstar (BMG Labtech). […]
// return just the number, without any unit appended

Requested read-out: Z-AUC. Entry: CN1CCc2c(c3ccccc3n2Cc2ccc(C(=O)NO)cc2)C1
-0.74

Recorded Z-AUC of COc1ccc(S(=O)(=O)Nc2cc(-c3c(O)ccc4ccccc34)c(O)c3ccccc23)cc1 , please.
0.417

So what does the record say about Z-AUC for C#CCC(Cc1cnc2nc(N)nc(N)c2n1)c1ccc(C(=O)N[C@@H](CCC(=O)O)C(=O)O)cc1 (some centres undefined) ?
-2.32

Fill in the blank: the reported Z-AUC of CCOC(=O)C=C[C@H](C[C@@H]1CCNC1=O)NC(=O)[C@@H](CC(=O)[C@@H](NC(=O)c1cc(C)on1)C(C)C)Cc1ccc(F)cc1 is ____.
-0.169

---

- test.description: Quantitative High-Throughput drug screen in 47 multiple myeloma cell lines against the NCATS MIPE library collection: JIM1_ECACC cell viability assay (AID 1918964)
- experimental.setup: JIM1 myeloma viability, CellTiter-Glo ATP luminescence, 48 h; series mostly up to 45.8 µM
Inconclusive results are not listed. Activity calls are given as the source filed them. Calls follow the shape of the dose curve; as a rule, active = well fitted cell-killing curve with a large enough effect; inconclusive = small, poorly fitted or top-dose-only effect, or effect the other way; inactive = no such curve, though single readings can be large or run the other way.
Please reply with one of these outcomes: active, inactive

Hi, do you know how O=C1NCCc2[nH]c(-c3ccncc3)cc21 came out in this test?
active

Please let me know the test result on file for C=CC[C@@H]1C=C(C)C[C@H](C)C[C@H](OC)[C@H]2O[C@@](O)(C(=O)C(=O)N3CCCC[C@H]3C(=O)O[C@H](C(C)=C[C@@H]3CC[C@H](O)[C@H](OC)C3)[C@@H](C)[C@@H](O)CC1=O)[C@@H](C)C[C@@H]2OC .
active

Please let me know the test result on file for Cc1onc(-c2ccccc2)c1C(=O)N[C@@H]1C(=O)N2[C@@H](C(=O)O)C(C)(C)S[C@@H]12 .
inactive

Which outcome was assigned to O=C(O)C=Cc1ccc(Cn2ccnc2)cc1 in this test?
inactive

For this compound, state the assay outcome: Nc1ccc(C(=O)Nc2cccc(-c3nc(N4CCOCC4)c4oc5ncccc5c4n3)c2)cn1
active

What did the test return for Nc1ccn(C[C@@H](CO)OCP(=O)(O)O)c(=O)n1 ?
inactive

Assay outcome for CC(=O)N1CCN(c2ccc(OCc3nn(C)c(C)c3-c3cccc4c(CCCOc5cccc6ccccc56)c(C(=O)O)n(Cc5cccnc5)c34)cc2)CC1 : what was it?
active

Tell me the recorded outcome of this test for O=C1c2cccc(O)c2C(=O)c2c(O)cc(CO)cc21 .
inactive

---

- test.description: qHTS profiling of the MIPE4 collection as inhibitors of Plasmodium falciparum (3D7) proliferation (AID 743344);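 further: scaled between DMSO vehicle wells and 0.29 µM artemisinin as full inhibition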
- experimental.setup: P. falciparum 3D7 in erythrocytes, SYBR Green DNA fluorescence, 72 h; at 28.5 µM (top of the series) unless noted
Classify as follows. Reported parasite growth, % of DMSO control greater than or equal to 30%: 1. Reported parasite growth, % of DMSO control below: -1.

Could you please find out whether CC(Cc1ccc(O)c(O)c1)(NN)C(=O)O (configuration not stated) has parasite growth, % of DMSO control that meets 30% or exceeds it?
1

Given the entry CCOc1cc2ncc(C#N)c(Nc3ccc(OCc4ccccn4)c(Cl)c3)c2cc1NC(=O)C=CCN(C)C , answer whether its parasite growth, % of DMSO control meets or surpasses 30%.
-1

Is parasite growth, % of DMSO control for CC(=O)N1CCN(c2ccc(OCc3nn(C)c(C)c3-c3cccc4c(CCCOc5cccc6ccccc56)c(C(=O)O)n(Cc5cccnc5)c34)cc2)CC1 at or above 30%?
-1

Form field: parasite growth, % of DMSO control at least 30%? Entry: COC1=C(OC)C(=O)C(CC=C(C)CCC=C(C)CCC=C(C)CCC=C(C)CCC=C(C)CCC=C(C)CCC=C(C)CCC=C(C)CCC=C(C)CCC=C(C)C)=C(C)C1=O
1

State whether the measured parasite growth, % of DMSO control reaches 30%, counting equality as reaching it, for FC(F)(F)c1ccc(Nc2nc3ccc(Oc4ccnc(-c5ncc(C(F)(F)F)[nH]5)c4)cc3[nH]2)cc1
-1

Form field: parasite growth, % of DMSO control at least 30%? Entry: Cn1cc(-c2cnn3c(N)c(Br)c([C@H]4CCCNC4)nc23)cn1
-1

Reported parasite growth, % of DMSO control reaches at least 30% for C[C@H](NC(=O)[C@@H](O)c1cc(F)cc(F)c1)C(=O)N[C@@H]1C(=O)N(C)c2ccccc2-c2ccccc21 ?
-1

Does the reported parasite growth, % of DMSO control for N#CC(=C(O)c1ccc(Cl)cc1Cl)c1nc2cc(Cl)ccc2c(=O)[nH]1 fall at or above the 30% mark?
1

Check this compound for parasite growth, % of DMSO control at or above 30%: C[C@@]12C[C@@]3(O)O[C@@H](O1)[C@]1(COC(=O)c4ccccc4)[C@@H]3C[C@@]12O[C@@H]1O[C@H](CO)[C@@H](O)[C@H](O)[C@@H]1O
1

Entry CC1(C)O[C@@H]2C[C@H]3[C@@H]4CCC5=CC(=O)C=C[C@]5(C)[C@@H]4[C@@H](O)C[C@]3(C)[C@]2(C(=O)CO)O1 : is its parasite growth, % of DMSO control no less than 30%?
-1

Given CCCCCCCCCCCCc1ccc(S(=O)(=O)Nc2nncs2)cc1 , state whether its parasite growth, % of DMSO control is at least 30%.
1

Hi team, for Cc1ccc2nc(NCCN)c3ncc(C)n3c2c1 , is the recorded parasite growth, % of DMSO control at or above 30%?
1

Exam item: decide whether the reported parasite growth, % of DMSO control for C[C@@]12C(=O)OC(=O)[C@@]1(C)C1CCC2O1 is at least 30%.
-1

Evaluate N=c1ccn2c(n1)O[C@H]1[C@@H](O)[C@@H](CO)O[C@H]12 : parasite growth, % of DMSO control at minimum 30%?
1

---

- test.description: Quantitative High-Throughput drug screen in 47 multiple myeloma cell lines against the NCATS MIPE library collection: KMS28PE_JCRB cell viability assay (AID 1918983); further: nearly all actives have a fitted effect of over 35% in size; further: potency means the concentration at half of the fitted maximal effect
- experimental.setup: KMS28PE multiple myeloma viability, CellTiter-Glo ATP, 48 h; series mostly up to 45.8 µM
Results filed as inconclusive are left out. Activity calls are given as the source filed them. Calls come from the whole dose curve; as a rule, active = well fitted cell-killing curve with a large enough effect; inconclusive = small, poorly fitted or top-dose-only effect, or effect the other way; inactive = no such curve, though single readings can be large or run the other way.
recorded.endpoint: Potency

A selection of reference data follows.
Cn1cnc2c(F)c(Nc3ccc(Br)cc3F)c(C(=O)NOCCO)cc21
inactive
Cc1cc(-c2nnc3n2CCCCC3)c(C)n1-c1ccccc1
inactive
COc1cc2c(cc1OC)[C@@H]1C(=O)c3ccc4c(c3O[C@@H]1CO2)C=CC(C)(C)O4
0.418 µM (active)
c1cncc(CN2CCC(n3ncc4c(N5CCOCC5)nc(-c5ccc6[nH]ccc6c5)nc43)CC2)c1
6.62 µM (active)
C=CC(=O)Nc1cccc(Nc2nc(NC3CCC(N(C)C)CC3)nc3c2ncn3C(C)C)c1 (centres undefined)
0.469 µM (active)

For the molecule Cn1c(Nc2ccc(C(F)(F)F)cc2)nc2cc(Oc3ccnc(-c4ncc(C(F)(F)F)[nH]4)c3)ccc21 , what Potency is on record?
23.5 µM (active)

Need Potency of c1cc(N[C@@H]2CCNC2)nc(-c2cnc3ccc(-c4cn[nH]c4)cn23)c1 , thanks.
16.6 µM (active)

I'd like to know its Potency. The molecule in question is CC(C(C)N1CC(=O)NC(=O)C1)N1CC(=O)NC(=O)C1 (centres undefined)
inactive

I have this molecule here, C=C(C)[C@@H]1CC[C@]2(C(=O)O)CC[C@]3(C)[C@H](CC[C@@H]4[C@@]5(C)CC[C@H](O)C(C)(C)[C@@H]5CC[C@]43C)[C@@H]12 , and I need its recorded Potency.
3.72 µM (active)

---

- test.description: qHTS for identification of novel therapeutic agents for treatment of microphthalmiaassociated transcription factor (MiT) renal cell carcinoma (RCC) (AID 1963991);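 further: curves scaled with 100% = DMSO viability and 0% = empty wells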
- experimental.setup: TFE3-RCC viability, CellTiter-Glo, 48 h; measured here: UOK124 Z-AUC; stronger effect = lower value
Results filed as inconclusive are left out.
// classify: if (z-score < 0.4) Yes else No

Answer whether the compound OC[C@@H](O)[C@@H](O)[C@H](O)[C@@H](O)CO has z-score strictly less than 0.4
Yes

Here's an entry: CCCc1nc(C(C)(C)O)c(C(=O)O)n1Cc1ccc(-c2ccccc2-c2nn[nH]n2)cc1 . Is its z-score below 0.4?
No

z-score strictly < 0.4 for this compound? CC(=O)N[C@@H]1[C@H](O[C@@H]2c3ccc(c(Cl)c3)Oc3cc4cc(c3O[C@H]3O[C@H](CO)[C@@H](O)[C@H](O)[C@H]3NC(=O)CCCCCCCC(C)C)Oc3ccc(cc3Cl)C[C@H]3NC(=O)[C@H](N)c5ccc(O)c(c5)Oc5cc(O)cc(c5)[C@H](NC3=O)C(=O)N[C@H]4C(=O)N[C@H]3C(=O)N[C@@H]2C(=O)N[C@@H](C(=O)O)c2cc(O)cc(O[C@H]4O[C@H](CO)[C@@H](O)[C@H](O)[C@H]4O)c2-c2cc3ccc2O)O[C@H](CO)[C@@H](O)[C@@H]1O
Yes

Is 0.4 strictly greater than the compound's reported z-score? compound: COc1ccc(S(=O)(=O)Nc2cccnc2Nc2ccc(O)cc2)cc1
Yes

Quick check: does CC(C)(C)[C@H](NC(=O)c1ccc(N)c(Cl)c1)C(=O)N1CCC[C@@H]1C(=O)N[C@H](C#N)CC(=O)O have z-score under 0.4?
No

Dear reviewer, please state whether CCCCCCCN(CC)CCCC(O)c1ccc(NS(C)(=O)=O)cc1 (stereo unspecified) has z-score strictly beneath 0.4.
Yes
